Kindly find below pKi information for 5-hydroxytryptamine receptor 6 (Homo sapiens, UniProt P50406) taken from the literature.
Remember the convention: pKi equals -log10 of concentration in molar.

### Prompt Provide value of pKi for this record tested with 5-hydroxytryptamine receptor 6 (Homo sapiens, UniProt P50406): CCCC(Sc1cc(Cl)cc(Cl)c1)c1nc(N)nc(N2CCN(C)CC2)n1 (racemic)
Sequence (P50406 whole entry): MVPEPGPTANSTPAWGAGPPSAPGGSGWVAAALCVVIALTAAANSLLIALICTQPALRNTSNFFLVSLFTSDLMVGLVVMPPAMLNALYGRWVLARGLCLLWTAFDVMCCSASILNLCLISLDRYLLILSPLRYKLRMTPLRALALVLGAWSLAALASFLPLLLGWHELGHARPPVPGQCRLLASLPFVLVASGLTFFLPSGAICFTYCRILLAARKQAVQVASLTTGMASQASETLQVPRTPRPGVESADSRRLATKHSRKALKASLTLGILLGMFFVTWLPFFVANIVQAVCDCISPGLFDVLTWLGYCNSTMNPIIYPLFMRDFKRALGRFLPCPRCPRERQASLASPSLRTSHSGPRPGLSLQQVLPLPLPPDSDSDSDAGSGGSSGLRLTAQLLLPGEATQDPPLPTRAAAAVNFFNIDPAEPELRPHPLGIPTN
### Response 7.13

### Prompt Provide value of pKi for this record tested with 5-hydroxytryptamine receptor 6 (Homo sapiens, UniProt P50406): Fc1ccc2c(C3CCN(CCCOc4ccc(CCN5CCCCC5)cc4)CC3)noc2c1
### Response 6.83

### Prompt Provide value of pKi for this record tested with 5-hydroxytryptamine receptor 6 (Homo sapiens, UniProt P50406): CCN=C(NS(=O)(=O)c1cccc(Cl)c1)N1CC(CF)(CF)C=N1
### Response 7.04

### Prompt Provide value of pKi for this record tested with 5-hydroxytryptamine receptor 6 (Homo sapiens, UniProt P50406): Cc1c(S(=O)(=O)Nc2ccc3ncc(N4CCN(C)CC4)cc3c2)sc2ccc(Cl)cc12
### Response 7.10

### Prompt Provide value of pKi for this record tested with 5-hydroxytryptamine receptor 6 (Homo sapiens, UniProt P50406): Nc1ccc(S(=O)(=O)n2c3c(c4ccccc42)CCNC3)cc1
### Response 6.94

### Prompt Provide value of pKi for this record tested with 5-hydroxytryptamine receptor 6 (Homo sapiens, UniProt P50406): COc1ccc2[nH]cc(C3CCN(CCCCN4C(=O)CC(c5c[nH]c6ccccc56)C4=O)CC3)c2c1 (racemic)
### Response 6.80

* * *

Kindly find below pKi information for UniProt:P50406 taken from the literature.
Remember the convention: pKi equals -log10 of concentration in molar.

### Prompt Provide value of pKi for this record tested with UniProt:P50406: O=C1CCc2ccc(OCCCCN3CCC(c4cn(S(=O)(=O)c5ccccc5)c5ccccc45)CC3)cc2N1
### Response 6.85

### Prompt Provide value of pKi for this record tested with UniProt:P50406: CN(C)CCn1cc(S(=O)(=O)c2cc(Cl)ccc2Cl)c2cccnc21
### Response 7.93

### Prompt Provide value of pKi for this record tested with UniProt:P50406: COCc1cc(C)n2nc(SC)c(S(=O)(=O)c3ccccc3)c2n1
### Response 8.49

### Prompt Provide value of pKi for this record tested with UniProt:P50406: C#CCN[C@@H]1CCc2ccccc21
### Response 8.85

### Prompt Provide value of pKi for this record tested with UniProt:P50406: O=S(=O)(c1cncc2ccccc12)N1CCC[C@H]1CCN1CC=C(c2c[nH]c3ccc(Cl)cc23)CC1
### Response 7.22

### Prompt Provide value of pKi for this record tested with UniProt:P50406: O=S(=O)(c1cccc2cnccc12)N1CCC[C@H]1CCN1CCN(c2noc3ccccc23)CC1
### Response 7.04

### Prompt Provide value of pKi for this record tested with UniProt:P50406: NCCn1cc(S(=O)(=O)c2cccc(F)c2)c2cccnc21
### Response 8.33

### Prompt Provide value of pKi for this record tested with UniProt:P50406: CC(C)Oc1ccccc1OCCCCN1CCN(c2cccc3c2ccn3S(=O)(=O)c2ccccc2)CC1
### Response 7.96

### Prompt Provide value of pKi for this record tested with UniProt:P50406: O=S1(=O)c2cccc3cccc(c23)N1CCCCCCN1CCN(c2ccc(Cl)cc2)CC1
### Response 6.36

### Prompt Provide value of pKi for this record tested with UniProt:P50406: CN1CCC(n2cc(S(=O)(=O)c3cccc(Br)c3)c3cccnc32)C1 (configuration not stated)
### Response 9.05

* * *

Kindly find below Ki information for 5-hydroxytryptamine receptor 6 (Homo sapiens, UniProt P50406) taken from the literature.
I only need the number, in nM, no unit after it.

### Prompt // query Ki value for entry CCN/C(=N\S(=O)(=O)c1ccc(N)c(Cl)c1)N1CC2(C=N1)CCCC2
### Response 1.8

### Prompt // query Ki value for entry O=C1c2ccccc2S(=O)(=O)N1CCCCCCN1CCN(c2ccccc2Cl)CC1
### Response 459

### Prompt // query Ki value for entry O=S(=O)(Nc1ccc2[nH]ccc2c1)c1c(Cl)nc2n1CCS2
### Response 16.9

### Prompt // query Ki value for entry CN(C)CCn1cc(S(=O)(=O)c2cccc(Cl)c2)c2cccnc21
### Response 2.3

### Prompt // query Ki value for entry O=S(=O)(c1ccc(F)cc1)c1n[nH]c2ccc(NC3CCNCC3)cc12
### Response 6.3

### Prompt // query Ki value for entry CN1CCC(n2cc(S(=O)(=O)c3cccc(Cl)c3)c3ccccc32)C1 (configuration not stated)
### Response 1.3

### Prompt // query Ki value for entry O=S(=O)(Nc1ccc2sc(N3CCNCC3)nc2c1)c1cccc2ccccc12
### Response 500

* * *

Kindly find below Ki information for 5-hydroxytryptamine receptor 6 (Homo sapiens) taken from the literature.

### Prompt Provide value of Ki for this record tested with 5-hydroxytryptamine receptor 6 (Homo sapiens): c1ccc(-c2ccc(N3CCN(Cc4c[nH]c5ncccc45)CC3)cc2)cc1
### Response > 10 µM

### Prompt Provide value of Ki for this record tested with 5-hydroxytryptamine receptor 6 (Homo sapiens): CN(C)CCN1CCc2ccccc21
### Response > 5 µM

### Prompt Provide value of Ki for this record tested with 5-hydroxytryptamine receptor 6 (Homo sapiens): Cc1ccc2c(OCCN3CCC(Cc4ccc5c(c4F)NC(=O)CO5)CC3)cc(F)cc2n1
### Response > 10 µM

* * *

Kindly find below pKi information for 5-hydroxytryptamine receptor 6 (Homo sapiens) taken from the literature.
Remember the convention: pKi equals -log10 of concentration in molar.

### Prompt Provide value of pKi for this record tested with 5-hydroxytryptamine receptor 6 (Homo sapiens): O=S(=O)(c1cccc2ccccc12)n1ccc2ccc(C3=CCN4CCCC4C3)cc21 (centres undefined)
### Response 8.90

### Prompt Provide value of pKi for this record tested with 5-hydroxytryptamine receptor 6 (Homo sapiens): Cc1ccc(-c2n[nH]c3c2CCNCC3)cc1
### Response 6.96

### Prompt Provide value of pKi for this record tested with 5-hydroxytryptamine receptor 6 (Homo sapiens): CC1(c2ccc(N)cc2)C(=O)Nc2cc(Cl)cc(Cl)c2C1=O (centres undefined)
### Response 6.81

### Prompt Provide value of pKi for this record tested with 5-hydroxytryptamine receptor 6 (Homo sapiens): O=S(=O)(c1ccccc1F)c1cn(C2CCNC2)c2ncccc12 (centres undefined)
### Response 8.70

* * *

Kindly find below pKi information for 5-hydroxytryptamine receptor 6 (Homo sapiens) taken from the literature.
Remember the convention: pKi equals -log10 of concentration in molar.

### Prompt Provide value of pKi for this record tested with 5-hydroxytryptamine receptor 6 (Homo sapiens): O=S(=O)(c1cncc2ccccc12)N1CCC[C@H]1CCN1CCC(c2noc3cc(F)ccc23)CC1
### Response 6.86

### Prompt Provide value of pKi for this record tested with 5-hydroxytryptamine receptor 6 (Homo sapiens): COc1cccc(Cc2nc(N)nc(N3CCN(C)CC3)n2)c1
### Response 6.80

### Prompt Provide value of pKi for this record tested with 5-hydroxytryptamine receptor 6 (Homo sapiens): O=S(=O)(c1ccccc1)n1cc(C2CCNCC2)c2cc(F)ccc21
### Response 7.70

### Prompt Provide value of pKi for this record tested with 5-hydroxytryptamine receptor 6 (Homo sapiens): O=S(=O)(c1cccc2ncccc12)N1CCC[C@@H]1CCN1CCN(c2cccc3sccc23)CC1
### Response 7.89

### Prompt Provide value of pKi for this record tested with 5-hydroxytryptamine receptor 6 (Homo sapiens): CN(C)CCn1cc(S(=O)(=O)c2ccc(Cl)s2)c2cccnc21
### Response 8.48

### Prompt Provide value of pKi for this record tested with 5-hydroxytryptamine receptor 6 (Homo sapiens): CCN/C(=N\S(=O)(=O)c1ccccc1Cl)N1CC(CC)C=N1 (configuration not stated)
### Response 7.56

### Prompt Provide value of pKi for this record tested with 5-hydroxytryptamine receptor 6 (Homo sapiens): COc1ccc(S(=O)(=O)N2CC(C(=O)N3CCNCC3)c3ccccc32)c2ccccc12 (racemic)
### Response 8.10

### Prompt Provide value of pKi for this record tested with 5-hydroxytryptamine receptor 6 (Homo sapiens): Cc1ccc(S(=O)(=O)n2c3c(c4ccccc42)CCNC3)cc1
### Response 6.57

### Prompt Provide value of pKi for this record tested with 5-hydroxytryptamine receptor 6 (Homo sapiens): CCN1CCN(c2cn(S(=O)(=O)c3ccc(F)cc3)c3ccc(Br)cc23)CC1
### Response 7.97

### Prompt Provide value of pKi for this record tested with 5-hydroxytryptamine receptor 6 (Homo sapiens): O=S(=O)(NC1CCN(CCOc2cccc(F)c2)C1)c1ccc(F)c(F)c1 (configuration not stated)
### Response 6.02

### Prompt Provide value of pKi for this record tested with 5-hydroxytryptamine receptor 6 (Homo sapiens): COc1ccccc1N1CCN(CCCCC(=O)NCc2ccccc2-c2ccccc2Cl)CC1
### Response 5.82

### Prompt Provide value of pKi for this record tested with 5-hydroxytryptamine receptor 6 (Homo sapiens): CN(C)CCN(C)Cc1ccc2[nH]nc(S(=O)(=O)c3cccc4ccccc34)c2c1
### Response 7.85

### Prompt Provide value of pKi for this record tested with 5-hydroxytryptamine receptor 6 (Homo sapiens): O=S(=O)(c1ccc(Cl)c(Cl)c1)n1cc(C2=CCCNC2)c2ccccc21
### Response 7.32

### Prompt Provide value of pKi for this record tested with 5-hydroxytryptamine receptor 6 (Homo sapiens): CC1(c2cccc(O)c2)C(=O)Nc2cc(Cl)cc(Cl)c2C1=O (configuration not stated)
### Response 7.52

### Prompt Provide value of pKi for this record tested with 5-hydroxytryptamine receptor 6 (Homo sapiens): O=S(=O)(c1ccccc1)c1cccc2oc(N3CCNCC3)nc12
### Response 7.39

### Prompt Provide value of pKi for this record tested with 5-hydroxytryptamine receptor 6 (Homo sapiens): O=C1c2cccc3cccc(c23)N1CCCCCCN1CCN(c2ccccc2F)CC1
### Response 5.76

### Prompt Provide value of pKi for this record tested with 5-hydroxytryptamine receptor 6 (Homo sapiens): Cc1c(S(=O)(=O)N2CC(C(=O)N(C)C3CCN(C)CC3)c3ccccc32)sc2ccc(Cl)cc12 (racemic)
### Response 7.20

### Prompt Provide value of pKi for this record tested with 5-hydroxytryptamine receptor 6 (Homo sapiens): O=C([C@@H]1CCCN1C(=O)CCCCN1CCN(c2ccccc2-c2ccccc2)CC1)N1CCCCC1
### Response 5.77

### Prompt Provide value of pKi for this record tested with 5-hydroxytryptamine receptor 6 (Homo sapiens): O=C1c2cccc3cccc(c23)N1CCCCCCN1CCN(c2cccc(Cl)c2)CC1
### Response 6.32
